Where do the numbers come from? From patent US9999650B2.

Numbered stars: 1 amine (or outer) side, 2 acyl side, 3 side chain; on linkers, the order of the positions; unused ones are H or OH. Bridge positions count the residues as written; N and C are the ends. Square brackets hold non-standard residues; d marks the D form. Peptide text beside a SMILES is read from it. mXylylene = c1cc(C[*:1])cc(C[*:2])c1; Phg = N[C@H](C(=O)O)c1ccccc1; Tle = CC(C)(C)[C@H](N)C(=O)O
Parameter: IC50

// lookup IC50 | system=thrombin (Homo sapiens, UniProt P00734) | key= CC(=O)N[C@H]1CSCc2cccc(c2)CSC[C@@H](C(=O)N[C@@H](CCCNC(=N)N)C(=O)N[C@H](C(N)=O)C(C)(C)C)NC(=O)[C@H](c2ccccc2)NC(=O)[C@H](CO)NC(=O)[C@H](C)NC1=O [Compound R2036, [mXylyl(1,5)]Ac-CAS-Phg-CR-Tbg-NH2] (Ac-CAS[Phg]CR[Tle]-NH2; linker 1-5 via mXylylene) > 100 µM

====

Hi there, I'd appreciate the recorded pIC50 for every entry that follows.
Assayed System: human plasma kallikrein (Homo sapiens)
Construct: purchased Enzyme Research Laboratories HPKa 1303
Method Summary: Enzyme inhibition assay (fluorogenic substrate H-Pro-Phe-Arg-AMC)
Assay type: biochemical
Assay Conditions: Kallikrein inhibitory activity; 1 nM activated human kallikrein, 500 μM H-Pro-Phe-Arg-AMC, 1 hour room temperature; read-out: Avg. IC50
pIC50: −log10 of the molar value. Numbered stars: 1 amine (or outer) side, 2 acyl side, 3 side chain; on linkers, the order of the positions; unused ones are H or OH. Bridge positions count the residues as written; N and C are the ends. Square brackets hold non-standard residues; d marks the D form. Peptide text beside a SMILES is read from it. NMeW = CN[C@@H](Cc1c[nH]c2ccccc12)C(=O)O; mXylylene = c1cc(C[*:1])cc(C[*:2])c1; NMeY = CN[C@@H](Cc1ccc(O)cc1)C(=O)O; NMeT = CN[C@H](C(=O)O)[C@@H](C)O; Chg = N[C@H](C(=O)O)C1CCCCC1; Tle = CC(C)(C)[C@H](N)C(=O)O; αMeP = C[C@@]1(C(=O)O)CCCN1; NMeS = CN[C@@H](CO)C(=O)O; Aib = CC(C)(N)C(=O)O; Mpa = O=C(O)CCS

Request - read-out pIC50 | tested on human plasma kallikrein (Homo sapiens) | molecule CC[C@H](C)[C@@H]1NC(=O)[C@H](CO)NC(=O)[C@H](CCC(=O)O)NC(=O)[C@@H](NC(=O)[C@@H](N)CCSC)CSCc2cccc(c2)CSC[C@@H](C(=O)N[C@@H](CCCNC(=N)N)C(=O)N[C@H](C(=O)N[C@@H](CC(C)C)C(=O)N[C@@H](CCCNC(=N)N)C(=O)N[C@@H](Cc2ccc(O)cc2)C(=O)N[C@@H](CO)C(=O)N[C@@H](CCC(=O)O)C(N)=O)C(C)C)NC1=O [Compound R2004, [mXylyl(2,6)]MCESICRVLRYSE-NH2] (H-MCESICRVLRYSE-NH2; linker 2-6 via mXylylene) 9.30

Checklist item: pIC50 tested on human plasma kallikrein (Homo sapiens), entry CC(=O)N[C@H]1CSSC[C@@H](C(N)=O)NC(=O)[C@H](C)NC(=O)[C@H]([C@@H](C)O)N(C)C(=O)[C@H](Cc2c[nH]c3ccccc23)NC(=O)[C@@H]2CCCN2C(=O)[C@H](CO)N(C)C(=O)[C@H](Cc2c[nH]c3ccccc23)NC(=O)[C@H](Cc2ccc(O)cc2)N(C)C(=O)[C@H](CC(N)=O)NC1=O [Compound R2224] (Ac-CN[NMeY]W[NMeS]PW[NMeT]AC-NH2; disulfide 1-10) , value? < 4.00

Param readout= pIC50; system= human plasma kallikrein (Homo sapiens); entry= CC(C)(C)[C@H](NC(=O)[C@H](CCCNC(=N)N)NC(=O)[C@@H]1CSCc2cccc(c2)CSCCC(=O)N2CCC[C@@]2(C)C(=O)N[C@@H](C2CCCCC2)C(=O)N1)C(N)=O [Compound R2180] ([Mpa][αMeP][Chg]CR[Tle]-NH2; linker 1-4 via mXylylene) ; returns value. 8.17

Recorded pIC50 for C[C@@H]1NC(=O)C(C)(C)NC(=O)CCSCc2cccc(c2)CSC[C@@H](C(=O)N[C@@H](CCCNC(=N)N)C(=O)O)NC(=O)[C@H](C2CCCCC2)NC1=O [Compound R2153, [mXylyl(1,5)](des-NH2)C-Aib-A-Chg-CR-OH] ([Mpa][Aib]A[Chg]CR-OH; linker 1-5 via mXylylene) with human plasma kallikrein (Homo sapiens), please? < 5.05

Lookup: pIC50 / human plasma kallikrein (Homo sapiens) / CC(=O)N[C@@H](CS)C(=O)N[C@@H](CC(N)=O)C(=O)N[C@@H](Cc1ccc(O)cc1)C(=O)N(C)[C@@H](Cc1c[nH]c2ccccc12)C(=O)N[C@@H](CO)C(=O)N1CCC[C@H]1C(=O)N[C@@H](Cc1c[nH]c2ccccc12)C(=O)N[C@H](C(=O)N[C@@H](C)C(=O)N[C@@H](CS)C(N)=O)[C@@H](C)O [Compound R2238, Ac-CNY-nMeW-SPWTAC-NH2] (Ac-CNY[NMeW]SPWTAC-NH2) < 5.34

Field: pIC50 (human plasma kallikrein (Homo sapiens)). Entry: CC(C)(C)[C@H](NC(=O)[C@H](CCCNC(=N)N)NC(=O)[C@@H]1COc2cccc(c2)OCCCC(=O)N2CCC[C@H]2C(=O)N[C@@H](C2CCCCC2)C(=O)N1)C(N)=O [Compound R2255] < 4.60

====

Assayed System: human plasma kallikrein (Homo sapiens, UniProt P03952)
Construct: purchased Enzyme Research Laboratories HPKa 1303
Sequence (P03952 20-390 limits assumed): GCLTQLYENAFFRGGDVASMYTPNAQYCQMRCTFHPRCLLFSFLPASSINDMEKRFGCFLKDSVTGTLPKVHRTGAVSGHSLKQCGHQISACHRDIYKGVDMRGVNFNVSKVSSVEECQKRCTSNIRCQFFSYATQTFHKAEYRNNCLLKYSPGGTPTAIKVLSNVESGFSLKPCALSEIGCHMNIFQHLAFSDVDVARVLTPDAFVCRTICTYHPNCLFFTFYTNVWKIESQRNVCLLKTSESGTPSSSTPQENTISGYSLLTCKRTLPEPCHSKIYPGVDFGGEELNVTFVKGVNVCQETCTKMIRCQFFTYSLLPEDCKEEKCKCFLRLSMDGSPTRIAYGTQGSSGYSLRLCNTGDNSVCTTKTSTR
Sequence (P03952 391-638 limits assumed): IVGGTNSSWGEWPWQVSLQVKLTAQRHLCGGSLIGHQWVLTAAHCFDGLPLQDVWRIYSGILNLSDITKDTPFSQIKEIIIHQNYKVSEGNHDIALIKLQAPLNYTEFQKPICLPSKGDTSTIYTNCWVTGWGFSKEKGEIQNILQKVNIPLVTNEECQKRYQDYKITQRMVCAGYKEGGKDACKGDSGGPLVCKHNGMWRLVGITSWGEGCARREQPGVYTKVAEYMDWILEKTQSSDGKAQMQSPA
Method Summary: Enzyme inhibition assay (fluorogenic substrate H-Pro-Phe-Arg-AMC)
Type: biochemical
Assay Conditions: Kallikrein inhibitory activity; 1 nM activated human kallikrein, 500 μM H-Pro-Phe-Arg-AMC, 1 hour room temperature; read-out: Avg. IC50
pIC50: −log10 of the molar value. Numbered stars: 1 amine (or outer) side, 2 acyl side, 3 side chain; on linkers, the order of the positions; unused ones are H or OH. Bridge positions count the residues as written; N and C are the ends. Square brackets hold non-standard residues; d marks the D form. Peptide text beside a SMILES is read from it. Phe(3-Cl) = N[C@@H](Cc1cccc(Cl)c1)C(=O)O; Phe(4-Cl) = N[C@@H](Cc1ccc(Cl)cc1)C(=O)O; mXylylene = c1cc(C[*:1])cc(C[*:2])c1; Chg = N[C@H](C(=O)O)C1CCCCC1; Phg = N[C@H](C(=O)O)c1ccccc1; Tle = CC(C)(C)[C@H](N)C(=O)O; Mpa = O=C(O)CCS
Parameter: pIC50

Value lookup for pIC50; key = `CC(C)(C)[C@H](NC(=O)[C@H](CCCNC(=N)N)NC(=O)[C@@H]1COCc2cn(nn2)CCCCC(=O)N2CCC[C@H]2C(=O)N[C@@H](C2CCCCC2)C(=O)N1)C(N)=O` < 4.00

Form field: reported pIC50 of `CC(C)(C)[C@H](NC(=O)[C@H](CCCNC(=N)N)NC(=O)[C@@H]1CCn2cc(nn2)CCCCC(=O)N2CCC[C@H]2C(=O)N[C@@H](C2CCCCC2)C(=O)N1)C(N)=O` < 4.00

Field request: pIC50 | item: CC(C)(C)[C@H](NC(=O)[C@H](Cc1ccc(Cl)cc1)NC(=O)[C@@H]1CSCc2cccc(c2)CSCCC(=O)N2CCC[C@H]2C(=O)N[C@@H](c2ccccc2)C(=O)N1)C(N)=O [Compound R2205] ([Mpa]P[Phg]C[Phe(4-Cl)][Tle]-NH2; linker 1-4 via mXylylene) < 4.12

Given CC(C)(C)[C@H](NC(=O)[C@H](Cc1cccc(Cl)c1)NC(=O)[C@@H]1CSCc2cccc(c2)CSCCC(=O)N2CCC[C@H]2C(=O)N[C@@H](c2ccccc2)C(=O)N1)C(N)=O [Compound R2207] ([Mpa]P[Phg]C[Phe(3-Cl)][Tle]-NH2; linker 1-4 via mXylylene) , state its recorded pIC50. < 4.12

Any idea what pIC50 was measured for CC(=O)N[C@@H](CS)C(=O)N[C@@H](CC(N)=O)C(=O)N[C@H](Cc1ccc(O)cc1)C(=O)N[C@@H](Cc1c[nH]c2ccccc12)C(=O)N[C@@H](CO)C(=O)N1CCC[C@H]1C(=O)N[C@@H](Cc1c[nH]c2ccccc12)C(=O)N[C@H](C(=O)N[C@@H](C)C(=O)N[C@@H](CS)C(N)=O)[C@@H](C)O [Compound R2232, Ac-CNyWSPWTAC-NH2] (Ac-CN[dY]WSPWTAC-NH2) ? < 5.71

Need pIC50 of `CC[C@@H](C)[C@@H]1NC(=O)[C@@H]2CCCN2C(=O)CCCCC/C=C/C[C@@H](C(=O)N[C@@H](CCCNC(=N)N)C(=O)N[C@H](C(N)=O)C(C)C)NC1=O` , thanks. < 4.30

Which measured pIC50 value corresponds to N=C(N)NCCC[C@H](NC(=O)[C@@H]1CSCc2cccc(c2)CSCCC(=O)N2CCC[C@H]2C(=O)N[C@@H](C2CCCCC2)C(=O)N1)C(=O)O [Compound R2195, [mXylyl(1,4)](des-NH2)C-P-Chg-CR-OH] ([Mpa]P[Chg]CR-OH; linker 1-4 via mXylylene) ? < 3.76
